# Tested on: C. gattii
# experiment: Broth microdilution susceptibility testing (CLSI M27-A3)
# Assay type: cell-based
# assay conditions: Cryptococcus gattii, C. gattii isolate MYA-4560 (second listing, r21); read-out: MIC
# Text: C. neoformans strains H99, DUMC 118.00, and DUMC 158.03 and C. gattii strains R272 and RSA-MW-3515 were obtained from Duke University. C. albicans 90028, A. fumigatus MYA3626, C. neoformans 14116, C. neoformans 76484, and the pathogenic Cryptococcus reference strains panel (ATCC MP-11) were obtained from the American Type Culture Collection (ATCC; Manassas, VA, USA). The ATCC MP-11 panel consists of strains representing eight molecular types and three subtypes of C. neoformans and C. gattii. […]
observed property: MIC (µg/mL)
Expressed in µg/mL, but write only the number.

Nc1ncccc1-c1cc(Cc2ccc(Oc3cccc(F)n3)cc2)no1 : 0.008
C[C@@H]1[C@H](O)[C@@H](C)/C=C/C=C/C=C/C=C/C=C/C=C/C=C/[C@H](O[C@@H]2O[C@H](C)[C@@H](O)[C@H](N)[C@@H]2O)C[C@@H]2O[C@](O)(C[C@@H](O)C[C@@H](O)[C@H](O)CC[C@@H](O)C[C@@H](O)CC(=O)O[C@H]1C)C[C@H](O)[C@H]2C(=O)O [AMB, amphotericin B, reference compound] : 0.063
OC(Cn1cncn1)(Cn1cncn1)c1ccc(F)cc1F [FLC, fluconazole, reference compound] : 1
Nc1ncccc1-c1cc(Cc2ccc(OCc3ccccc3)nc2)no1 : 0.016
Nc1ncccc1-c1cc(Cc2ccc(OCc3ccccc3)cc2)no1 : 0.063

Continue with the next compound.
The recorded MIC with C. gattii for Nc1ncccc1-c1cc(Cc2ccc(COc3ccccn3)cc2)no1 [APX001A] was 0.25
